- Test method notes: Plasma protein binding in rat
- Format: ADME, cell-free
- Condition set: read-out: PPB (converted)
Recorded fraction unbound, one value per entry.
Returns: the value as a bare number; no unit string appended.

Please review the following examples before continuing.
Compound | fraction unbound
O=C(C1CCC(F)(F)CC1)N1CC(c2nc(-c3cccc(Cl)c3)no2)C1 | 0.031
O=C([C@H]1CC2CCC1C2)N1CC(c2nc(-c3cccc(F)c3)no2)C1 (stereo partly drawn) | 0.008

Please find the next compound below.
So for CC1CCCCC1C(=O)N1CC(c2nc(-c3cccc(F)c3)no2)C1 (stereo not drawn) , the logged fraction unbound turned out to be 0.055

Source of measurements: ChEMBL document CHEMBL2150889
